Test: Plasma concentration in Beagle dog at 10 mg/kg, po after 4 hrs
Assay type: ADME, organism-based, Canis lupus familiaris
Parameters: dose 10 mg/kg, route oral
endpoint_name: concentration at 4 h
Value and unit, in that order.

Prompt: # return recorded concentration at 4 h for input Cc1c(N2[C@@H]3CC[C@H]2C[C@@](C)(O)C3)ccc(C#N)c1Cl
Completion: 159 ng/mL

* * *

Test: Half life in Beagle dog at 1 mg/kg, iv
Type: ADME, organism-based, Canis lupus familiaris
Set-up: dose 1 mg/kg, route intravenous
Conditions: in vivo
endpoint_name: half-life
Value and unit, in that order.

Prompt: # return recorded half-life for input Cc1c(N2[C@@H]3CC[C@H]2C[C@@](C)(O)C3)ccc(C#N)c1Cl
Completion: 2.1 h

Origin of measurements: ChEMBL document CHEMBL1156129
